Test: p53 small molecule agonists, cell-based qHTS assay (AID 1963582)
Settings: HCT-116 p53RE-bla reporter, beta-lactamase FRET ratio, 16 h; series mostly up to 66 µM
Inconclusive results are not listed. Calls of active or inactive are those of the source. The call rests on the fitted dose curve; in most records, active means well fitted activation curve with a large enough effect in the signal ratio in the repeat runs (not every such curve was filed as active); inconclusive means weak or mixed curves; inactive means flat fitted curve, though single readings scatter; the % refers to the signal ratio.
Outcomes: active, inactive

INSERT INTO results (compound, category) VALUES
  ('CC(C)(N)Cc1ccccc1Cl', 'inactive'),
  ('Brc1ccc(Oc2ccccc2)cc1', 'inactive'),
  ('CCOC(=O)c1ccccc1C(=O)OCC', 'inactive'),
  ('C1CC2OC2CC1C1CO1 (stereo not given)', 'inactive'),
  ('COc1nc(C)nc(NC(=O)NS(=O)(=O)c2ccccc2Cl)n1', 'inactive'),
  ('N#CC(Cl)Cl', 'inactive'),
  ('NC(=O)c1cc([N+](=O)[O-])cc([N+](=O)[O-])c1', 'inactive'),
  ('Clc1ccc(C(Cl)(Cl)Cl)cc1', 'inactive'),
  ('CC(C)(OOC(C)(C)c1ccccc1)c1ccccc1', 'inactive'),
  ('Oc1ccc(Cl)c(Cl)c1', 'inactive'),
  ('CC1(C)C(=O)NC(=O)NC1=O', 'inactive'),
  ('COC(=O)Nc1nc2ccccc2[nH]1', 'active'),
  ('O=C(NCO)NCO', 'inactive'),
  ('Nc1nc(N)nc(Cl)n1', 'inactive'),
  ('Cl/C=C/CCl', 'inactive');

====

Assay: Nuclear factor erythroid 2-related factor 2/antioxidant responsive element (Nrf2/ARE) small molecule agonists: qHTS cell viability counter screen in human keratinocytes (AID 1919968); further: nearly all actives have a fitted effect of over 55% in size
Settings: KeratinoSens HaCaT ARE cells viability, CellTiter-Fluor, 24 h; series mostly up to 92.4 µM
Inconclusive results are not listed. Activity calls are given as the source filed them. The call rests on the fitted dose curve; in most records, active means well fitted cell-killing curve with a large enough effect in the repeat runs; inconclusive means weak or mixed curves, or effect the other way; inactive means flat fitted curve, though single readings scatter.
Outcome codes: active, inactive

INSERT INTO measurements (smiles_record, category) VALUES
  ('CC(C)(C)OOC(C)(C)CCC(C)(C)OOC(C)(C)C', 'inactive'),
  ('CC(C)(O)C#N', 'inactive'),
  ('Oc1ccccc1Cl', 'inactive'),
  ('CCCCCCCCC(=O)NCc1ccc(O)c(OC)c1', 'inactive'),
  ('CCCCN(CCCC)N=O', 'inactive'),
  ('CC(C)OC(=S)S', 'active'),
  ('CCOC(=O)CP(=O)(OCC)OCC', 'inactive'),
  ('COc1ccccc1N', 'inactive'),
  ('CCOS(=O)(=O)OCC', 'inactive');

====

Target: Muscarinic acetylcholine receptor M1 (Homo sapiens) (UniProt P11229)
Sequence (P11229 whole entry, looked up): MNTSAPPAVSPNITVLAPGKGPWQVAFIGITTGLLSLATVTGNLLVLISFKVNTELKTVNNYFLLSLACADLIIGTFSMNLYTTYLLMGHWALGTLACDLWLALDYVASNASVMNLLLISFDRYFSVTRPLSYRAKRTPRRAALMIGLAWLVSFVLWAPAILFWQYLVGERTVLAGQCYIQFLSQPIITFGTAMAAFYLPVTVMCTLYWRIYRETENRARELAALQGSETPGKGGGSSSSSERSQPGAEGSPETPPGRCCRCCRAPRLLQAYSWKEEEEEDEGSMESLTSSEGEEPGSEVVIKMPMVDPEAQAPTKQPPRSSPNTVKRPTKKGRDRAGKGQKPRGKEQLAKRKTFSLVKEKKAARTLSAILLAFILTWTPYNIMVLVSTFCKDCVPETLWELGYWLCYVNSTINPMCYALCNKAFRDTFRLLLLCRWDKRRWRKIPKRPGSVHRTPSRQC
Assay: Cholinergic receptor muscarinic 1 (CHRM1) small molecule antagonists, cell-based qHTS assay (AID 1963588); further: nearly all actives have a fitted effect of over 40% in size
Conditions: CHRM1-CHO antagonist mode, calcium flux fluorescence; series mostly up to 61.5 µM
Inconclusive results are not listed. Calls of active or inactive are those of the source. The call rests on the fitted dose curve.
Outcomes: active, inactive

INSERT INTO measurements (smiles_record, category) VALUES
  ('N#CCCC#N', 'inactive'),
  ('NC(=O)c1cc([N+](=O)[O-])cc([N+](=O)[O-])c1', 'active'),
  ('O=P(O)(O)CCCl', 'inactive'),
  ('O=C(NCc1cccnc1)Nc1ccc([N+](=O)[O-])cc1', 'inactive'),
  ('Oc1ccc(Cl)cc1Cl', 'inactive'),
  ('C[C@]12CCC(=O)C=C1CC[C@@H]1[C@@H]2CC[C@]2(C)C(=O)CC[C@@H]12', 'inactive'),
  ('Clc1ccccc1-c1nnc(-c2ccccc2Cl)nn1', 'inactive');
